# Target Desc: T1, human CD3 on CD3+ Jurkat cells (human, UniProt P07766 23-207)
# T1 construct: whole, on cells; Native CD3 complex on cells; the other CD3 chains are not specified for this assay; also called Human CD3+ Jurkat
# T1 sequence (P07766 23-207): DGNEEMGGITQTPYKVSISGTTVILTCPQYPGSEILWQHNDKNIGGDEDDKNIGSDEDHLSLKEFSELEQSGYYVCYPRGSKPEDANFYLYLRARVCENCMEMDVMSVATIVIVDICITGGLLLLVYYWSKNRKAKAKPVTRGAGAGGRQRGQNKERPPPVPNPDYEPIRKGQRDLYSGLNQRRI
# Assay Remarks: flow cytometry, 100 nM IgG on CD3+ Jurkat cells, pH 6.0
Measured Quantity: MFI pH 6.0
In your response, the unit should come after the numeric value.

Respond only with MFI pH 6.0 recorded for SAD10318_P03_F07 (ADI-48602) (antibody, V domains shown, IgG; also called Ab192) VH: QVQLVQSGAEVKKPGASVKVSCKASGFNIKDYYMHWVRQAPGQRLEWMGWIDLENANTIYDAKFQGRVTITRDTSASTAYMELSSLRSEDTAVYYCARDAHGRYHYDVWGQGTLVTVSS VL: DIVMTQSPDCLAVSLGERATINCKSSQSLLNARTGHNYLAWYQQKPGQPPKLLIYWASTRESGVPDRFSGSGSGTDFTLTISSLQAEDVAVYYCKQSHSHRTFGGGTKVEIK
202 MFI

Respond only with MFI pH 6.0 recorded for SAD10318_P04_B11 (ADI-48614) (antibody, V domains shown, IgG; also called Ab217) VH: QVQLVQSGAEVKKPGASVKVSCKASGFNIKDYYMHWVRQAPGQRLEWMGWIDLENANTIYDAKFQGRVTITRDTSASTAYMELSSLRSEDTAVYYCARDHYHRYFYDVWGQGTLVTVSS VL: DIVMTQSPDSLAVSLGERATINCKSSQSLLNAHTGKNHLAWYQQKPGQPPKLLIYWASTRESGVPDRFSGSGSGTDFTLTISSLQAEDVAVYYCKQSYSRRTFGGGTKVEIK
148 MFI

Respond only with MFI pH 6.0 recorded for SAD10319_P03_E08 (ADI-48637) (antibody, V domains shown, IgG; also called Ab21) VH: QVQLVQSGAEVKKPGASVKVSCKASGYTFNDYAMHWVRQAPGQRLEWMGYINGTGATVYSQKFQGRVTITRDTSASTAYMELSSLRSEDTAVYYCARDAYHHYFYDVWSQGTLVTVSS VL: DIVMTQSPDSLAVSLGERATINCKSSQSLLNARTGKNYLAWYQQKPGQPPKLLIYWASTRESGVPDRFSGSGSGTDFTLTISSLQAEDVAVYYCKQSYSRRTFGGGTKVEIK
244 MFI

Respond only with MFI pH 6.0 recorded for SAD10320_P02_B06 (ADI-48653) (antibody, V domains shown, IgG; also called Ab83) VH: QVQLVQSGAEVKKPGASVKVSCKASGFNIKDYYMHWVRQAPGQRLEWMGWIDLENANTIYDAKFQGRVTITRDTSASTAYMELSSLRSEDTAVYYCARDAYGHWFYDVWGQGTLVTVSS VL: DIVMTQSPDSLAVSLGERATINCKSSQSLLNARTGKNYLAWYQQKPGQPPKLLIYWASTRESGVPDRFSGSGSGTDFTLTISSLQAEDVAVYYCKQSYHHRTFGGGTKVEIK
3110 MFI

Respond only with MFI pH 6.0 recorded for SAD10319_P02_A05 (ADI-48629) (antibody, V domains shown, IgG; also called Ab255) VH: QVQLVQSGAEVKKPGASVKVSCKASGYTFDSYAMHWVRQAPGQRLEWMGWINPNTGATTYSQKFQGRVTITRDTSASTAYMELSSLRSEDTAVYYCARDHYGHYFYDVWGQGTLVTVSS VL: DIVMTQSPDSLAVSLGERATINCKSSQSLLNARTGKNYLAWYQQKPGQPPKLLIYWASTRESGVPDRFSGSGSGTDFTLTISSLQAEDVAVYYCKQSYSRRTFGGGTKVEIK
1780 MFI
